Value source: patent US20230399287A1

Form field: pIC50 (one value per entry).
Test system: IL-6
Test: THP-1 AlphaLISA IL-6 cytokine assay
Format: cell-based
Details: Homo sapiens, THP-1, differentiated THP-1 cells, LPS 24 hr then Nigericin 1 hour
pIC50: −log10 of the molar value.

Sample records with pIC50:
INSERT INTO assay_data (compound, readout_label, result) VALUES
  ('C=C(CC(=O)OC(CC)c1ccc(C(F)(F)F)cc1)C(=O)O (stereo not drawn) [Example 10]', 'pIC50', '< 4.00'),
  ('C=C(CC(=O)OC1(c2ccc(C(F)(F)F)cn2)COC1)C(=O)O [Example 46]', 'pIC50', '< 4.50'),
  ('C=C(CC(=O)O[C@H](c1ccc(C(F)(F)F)cc1)C(F)(F)F)C(=O)O [Example 34]', 'pIC50', '< 4.50'),
  ('C=C(CC(=O)OC1(c2ccc(C(F)(F)F)cc2)COC1)C(=O)O [Example 24]', 'pIC50', '< 4.00');

Now examine the next entry.
Q: // lookup pIC50 | system=IL-6 | key= C=C(CC(=O)OCc1ccc(C(F)(F)F)cc1)C(=O)O [Example 13]
A: < 4.00

###

Assay: Hepatocyte stability assay (human)
Type: in vitro ADME
Conditions: human, cryopreserved hepatocytes, 10 μM compound, 60 min, read-out: T½
readout.label: half-life at 10 μM (h)
Kindly answer with a numeric value in h, unit omitted.

Sample records with half-life at 10 μM:
INSERT INTO results (given_smiles, measured_number) VALUES
  ('C=C(CC(=O)O[C@]1(c2ccc(C(F)(F)F)cc2)C[C@H](OC)C1)C(=O)O', 7.47),
  ('C=C(CC(=O)OC1(c2ccc(Br)cc2)CCC1)C(=O)O', 1.48),
  ('C=C(CC(=O)OC1(c2ccc(C(F)(F)F)cc2)CSC1)C(=O)O', 1.68),
  ('C=C(C(=O)O)C(C)(C)C(=O)OC1(c2ccc(C(F)(F)F)cc2)CCC1', 0.617),
  ('C=C(CC(=O)OC1(c2ccc(C#CC(F)(F)F)cc2)CCC1)C(=O)O', 1.87);

Now examine the next entry.
Q: half-life at 10 μM for `C=C(CC(=O)OC(C)(C)c1ccc(C(F)(F)F)cc1)C(=O)O` ?
A: 2.83

###

Form field: half-life at 10 μM (one value per entry).
Test: Hepatocyte stability assay (mouse)
Format: in vitro ADME
Settings: mouse, cryopreserved hepatocytes, 10 μM compound, 60 min, read-out: T½

Q: half-life at 10 μM for `C=C(CC(=O)OC1(c2ccc(Cl)cc2)CCC1)C(=O)O` ?
A: 1.08 h

Q: half-life at 10 μM for `C=C(CC(=O)OC1(c2ccc(C(F)(F)F)c(Cl)c2)CCC1)C(=O)O` ?
A: 0.75 h

Q: half-life at 10 μM for `C=C(CC(=O)OCc1ccc(C(F)(F)F)c(F)c1)C(=O)O` ?
A: 0.917 h

Q: half-life at 10 μM for `C=C(CC(=O)O[C@]1(c2ccc(C(F)(F)F)cc2)C[C@H](OC)C1)C(=O)O` ?
A: > 7.67 h

Q: half-life at 10 μM for `C=C(CC(=O)OC1(c2ccc(C(F)F)cc2)CCC1)C(=O)O` ?
A: 2.33 h

###

Assay: Hepatocyte stability assay (human)
Type: in vitro ADME
Settings: human, cryopreserved hepatocytes, 10 μM compound, 60 min, read-out: T½
readout.label: half-life at 10 μM

INSERT INTO results (given_smiles, result) VALUES
  ('C=C(CC(=O)OC1(c2ccc(C(F)(F)F)cc2)CCOCC1)C(=O)O', '> 7.67 h'),
  ('C=C(CC(=O)OC1(c2ccc(Br)cn2)CCC1)C(=O)O', '> 7.67 h');

Now examine the next entry.
Q: half-life at 10 μM for `C=C(CC(=O)OC1(c2ccc(C(F)(F)F)cn2)CCC1)C(=O)O` ?
A: > 7.67 h

###

Form field: IC50 (one value per entry).
Test system: IL-6
Test: THP-1 AlphaLISA IL-6 cytokine assay
Type: cell-based
Conditions: Homo sapiens, THP-1, differentiated THP-1 cells, LPS 24 hr then Nigericin 1 hour

Sample records with IC50:
INSERT INTO results (compound, readout_label, result) VALUES
  ('C=C(CC(=O)O[C@@H](c1ccc(C(F)(F)F)cc1)C(F)(F)F)C(=O)O', 'IC50', '> 63.1 µM'),
  ('C=C(CC(=O)OC1(c2ccc(C(F)(F)F)cc2)CC2(CC2)C1)C(=O)O', 'IC50', '> 100 µM'),
  ('C=C(CC(=O)OC1(c2ccc(C(F)(F)F)cc2)CN(C)C1)C(=O)O', 'IC50', '> 31.6 µM');

Now examine the next entry.
Q: IC50 for `C=C(CC(=O)OC1(c2ccc(C(F)(F)F)cc2)CC1)C(=O)O` ?
A: > 100 µM

###

Test: Hepatocyte stability assay (human)
Format: in vitro ADME
Conditions: human, cryopreserved hepatocytes, 10 μM compound, 60 min, read-out: T½
Form field: half-life at 10 μM (one value per entry).

Sample records with half-life at 10 μM:
INSERT INTO assay_data (compound, result) VALUES
  ('C=C(CC(=O)OC1(c2ccc(C(F)(F)F)nn2)CCC1)C(=O)O [Example 62]', '> 7.67 h'),
  ('C=C(CC(=O)OC1(c2ncc(C(F)(F)F)cn2)CCC1)C(=O)O [Example 52]', '> 7.67 h');

Now examine the next entry.
Q: half-life at 10 μM for C=C(CC(=O)OC1(c2ccc(C(F)(F)F)cc2)CC(C)C1)C(=O)O (single isomer, unassigned) [Example 44] ?
A: > 7.67 h

###

Test system: hepatocytes
Assay: Hepatocyte stability assay (mouse)
Type: in vitro ADME
Conditions: 10 μM compound, 60 min
Returns one of Yes or No; Yes when Clint is >= 30 μL min^−1 10^−6 cells.

Solved entries:
INSERT INTO results (given_smiles, answer_label) VALUES
  ('C=C(CC(=O)OC1(c2ccc(C(F)(F)F)cn2)CC1)C(=O)O', 'No'),
  ('C=C(CC(=O)OC1(c2ncc(C(F)(F)F)cn2)CCC1)C(=O)O', 'No'),
  ('C=C(CC(=O)OC1(c2ccc(C(F)(F)F)cc2)CCCC1)C(=O)O', 'No'),
  ('C=C(CC(=O)OC1(c2ccc(C(F)(F)F)cc2)CS(=O)(=O)C1)C(=O)O', 'Yes'),
  ('C=C(CC(=O)OC1(c2ccc(C#CC(F)(F)F)cc2)CCC1)C(=O)O', 'Yes');

Q: Can `C=C(CC(=O)O[C@]1(c2ccc(C(F)(F)F)cc2)C[C@H](OC)C1)C(=O)O` be said to have Clint at or above 30 μL min^−1 10^−6 cells?
A: No

Q: Can `C=C(CC(=O)O[C@H](c1ccc(C(F)(F)F)cc1)C(F)(F)F)C(=O)O` be said to have Clint at or above 30 μL min^−1 10^−6 cells?
A: Yes

Q: Can `C/C(=C\C(=O)OC1(c2ccc(C(F)(F)F)cc2)CCC1)C(=O)O` be said to have Clint at or above 30 μL min^−1 10^−6 cells?
A: Yes

Q: Can `C=C(CC(=O)OCc1ccc(C(F)(F)F)c(F)c1)C(=O)O` be said to have Clint at or above 30 μL min^−1 10^−6 cells?
A: No

Q: Can `C=C(C(=O)O)C1(C(=O)OC2(c3ccc(C(F)(F)F)cc3)CCC2)CC1` be said to have Clint at or above 30 μL min^−1 10^−6 cells?
A: Yes

###

Tested on: IL-6
Test: THP-1 AlphaLISA IL-6 cytokine assay
Assay type: cell-based
Details: Homo sapiens, THP-1, differentiated THP-1 cells, LPS 24 hr then Nigericin 1 hour
Where a name gives a salt, the structure may show the parent alone.
readout.label: IC50

Sample records with IC50:
INSERT INTO assay_data (compound, readout_label, result) VALUES
  ('C=C(CC(=O)OC1(c2ccc(C)c(Cl)c2)CCC1)C(=O)O', 'IC50', '> 100 µM'),
  ('C=C(CC(=O)OC1(c2ccc(Cl)cn2)CCC1)C(=O)O', 'IC50', '> 31.6 µM'),
  ('C=C(CC(=O)OC(C)(C)c1ccc(C(F)(F)F)cc1)C(=O)O', 'IC50', '> 63.1 µM'),
  ('C=C(CC(=O)OC1(c2ccc(C(F)(F)F)nc2)CCC1)C(=O)O', 'IC50', '> 100 µM'),
  ('C=C(CC(=O)OC1(c2ccc(C#N)cc2)CCC1)C(=O)O', 'IC50', '> 100 µM'),
  ('COC(=O)/C=C/C(=O)OC [dimethyl fumarate, reference compound]', 'IC50', '9.3 µM');

Now examine the next entry.
Q: // lookup IC50 | system=IL-6 | key= `C=C(CC(=O)OC1(c2ccc(C(F)(F)F)c(F)c2)CCC1)C(=O)O`
A: > 31.6 µM
